Data provenance is patent US20110275122A1.

- assaySystem: T1, human mpl receptor (human, UniProt P40238 26-635)
- T1 sequence (looked up): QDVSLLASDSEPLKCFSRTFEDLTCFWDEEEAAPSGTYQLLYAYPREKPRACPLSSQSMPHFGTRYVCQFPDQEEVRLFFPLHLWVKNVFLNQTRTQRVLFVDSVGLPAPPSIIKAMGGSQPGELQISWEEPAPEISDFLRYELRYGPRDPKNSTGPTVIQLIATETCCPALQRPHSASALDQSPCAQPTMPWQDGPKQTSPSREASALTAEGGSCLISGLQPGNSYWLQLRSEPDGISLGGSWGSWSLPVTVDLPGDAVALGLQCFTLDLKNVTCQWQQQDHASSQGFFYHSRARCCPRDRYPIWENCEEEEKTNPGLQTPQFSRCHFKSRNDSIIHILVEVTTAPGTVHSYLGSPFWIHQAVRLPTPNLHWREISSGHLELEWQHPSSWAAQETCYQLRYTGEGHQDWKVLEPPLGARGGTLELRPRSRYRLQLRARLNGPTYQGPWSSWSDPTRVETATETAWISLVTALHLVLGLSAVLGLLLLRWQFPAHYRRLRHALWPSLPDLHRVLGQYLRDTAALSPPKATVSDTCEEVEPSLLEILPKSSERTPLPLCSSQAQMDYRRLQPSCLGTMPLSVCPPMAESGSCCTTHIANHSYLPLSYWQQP
- assayMethodText: cell-based or functional assay
Please go through the items and note down their In vitro EC50.
Give the value, in units of pM, as a plain number.

GET /value?item= Fc-Loop (Asym) (SEQ ID NO: 243) (Fc fusion) MDKTHTCPPCPAPELLGGPSVFLFPPKPKDTLMISRTPEVTCVVVDVSHEDPEVKFNWYVDGVEVHNAKTKPREEQYNSTYRVVSVLTVLHQDWLNGKEYKCKVSNKALPAPIEKTISKAKGQPREPQVYTLPPSRDELGGGGQGCSSGGPTLREWQQCVRMQHSGGTKNQVSLTCLVKGFYPSDIAVEWESNGQPENNYKTTPPVLDSDGSFFLYSKLTVDKSRWQQGNVFSCSVMHEALHNHYTQKSLSLSPGK &field=In vitro EC50 returns 5.7

Briefly, In vitro EC50 measured for Fc-Loop (Asym) (SEQ ID NO: 9) (Fc fusion) MDKTHTCPPCPAPELLGGPSVFLFPPKPKDTLMISRTPEVTCVVVDVSHEDPEVKFNWYVDGVEVHNAKTKPREEQYNSTYRVVSVLTVLHQDWLNGKEYKCKVSNKALPAPIEKTISKAKGQPREPQVYTLPPSRDELGGGGQGCSSGGPTLREWQQCRRMQHSGGTKNQVSLTCLVKGFYPSDIAVEWESNGQPENNYKTTPPVLDSDGSFFLYSKLTVDKSRWQQGNVFSCSVMHEALHNHYTQKSLSLSPGK : 12.7

GET /value?item= Fc-Loop (Sym) (SEQ ID NO: 243) (Fc fusion) MDKTHTCPPCPAPELLGGPSVFLFPPKPKDTLMISRTPEVTCVVVDVSHEDPEVKFNWYVDGVEVHNAKTKPREEQYNSTYRVVSVLTVLHQDWLNGKEYKCKVSNKALPAPIEKTISKAKGQPREPQVYTLPPSRDELGGQGCSSGGPTLREWQQCVRMQHSGGTKNQVSLTCLVKGFYPSDIAVEWESNGQPENNYKTTPPVLDSDGSFFLYSKLTVDKSRWQQGNVFSCSVMHEALHNHYTQKSLSLSPGK &field=In vitro EC50 returns 9.9
